targetOrSystem: FAAH (Rattus norvegicus, UniProt P97612)
Construct: Preparation of Rat Brain Membranes Preparations (FAAH Enzyme Solution); from tissue; host or cells: rat cerebrum (brain membrane preparation)
Sequence (P97612 1-579): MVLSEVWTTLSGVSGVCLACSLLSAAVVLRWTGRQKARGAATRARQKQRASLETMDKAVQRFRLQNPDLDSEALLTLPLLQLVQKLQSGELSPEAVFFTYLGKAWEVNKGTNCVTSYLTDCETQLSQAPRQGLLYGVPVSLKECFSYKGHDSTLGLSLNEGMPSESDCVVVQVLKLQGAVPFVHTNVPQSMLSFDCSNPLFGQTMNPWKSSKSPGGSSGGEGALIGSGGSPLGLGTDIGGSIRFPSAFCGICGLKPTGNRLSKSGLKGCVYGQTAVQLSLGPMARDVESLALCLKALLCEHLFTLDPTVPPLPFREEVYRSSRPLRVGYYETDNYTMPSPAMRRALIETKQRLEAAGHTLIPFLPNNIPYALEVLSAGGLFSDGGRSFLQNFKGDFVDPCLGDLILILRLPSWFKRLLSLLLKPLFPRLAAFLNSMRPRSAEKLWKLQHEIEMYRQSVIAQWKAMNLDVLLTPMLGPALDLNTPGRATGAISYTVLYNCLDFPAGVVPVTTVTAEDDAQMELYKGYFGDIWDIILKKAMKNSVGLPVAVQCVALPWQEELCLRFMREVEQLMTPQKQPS
experimentSummary: Determination of FAAH inhibitory activity in rat (rat brain membrane preparations, [3H]-anandamide hydrolysis)
Type: biochemical
recordedConditions: rat brain membrane preparations; test substance 0.1 nM to 1 μM; read-out: FAAH Inhibition IC50
Could you mark each record class 1 if its IC50 falls strictly under 10 nM, and class 0 if it equals or exceeds it?

- molecule: "CCCn1c(=O)n(C(=O)N2CCCC2)c2cnc(-c3ccccc3)nc21 [Example 304]"
  qualitativeLabel: "class 1"
- molecule: "COc1cccc(Cc2ncc3c(n2)n(C)c(=O)n3C(=O)N2CCCC2)c1 [Example 261]"
  qualitativeLabel: "class 0"
- molecule: "CCN(C)C(=O)n1c(=O)n(C)c2nc(-c3ccncc3)ncc21 [Example 220]"
  qualitativeLabel: "class 1"
- molecule: "Cn1c(=O)n(C(=O)N2CCC2)c2cnc(COc3ccccc3F)nc21 [compound 408]"
  qualitativeLabel: "class 0"

====

Below, each entry is listed alongside its reported inhibition at 0.1 µM.
targetOrSystem: FAAH (Rattus norvegicus)
Construct: Preparation of Rat Brain Membranes Preparations (FAAH Enzyme Solution); from tissue; host or cells: rat cerebrum (brain membrane preparation)
experimentSummary: Determination of FAAH inhibitory activity in rat (rat brain membrane preparations, [3H]-anandamide hydrolysis)
Type: biochemical
recordedConditions: rat brain membrane preparations; 100 nM test substance; read-out: FAAH Inhibition, Inhibition Rate at 100 nM

- compound: "COCCCc1ncc2c(n1)n(C)c(=O)n2C(=O)N1CC(c2ccc(F)cc2)C1"
  targetOrSystem: "FAAH (Rattus norvegicus)"
  unitAbbreviation: "%"
  inhibition at 0.1 µM: 84
- compound: "Cc1cccc(OCc2ncc3c(n2)n(C(=O)N2CCC2)c(=O)n3C)c1"
  targetOrSystem: "FAAH (Rattus norvegicus)"
  unitAbbreviation: "%"
  inhibition at 0.1 µM: 66
- compound: "COc1cccc(-c2ncc3c(n2)n(C)c(=O)n3C(=O)N2CCN(c3cccc(C)c3)CC2)c1"
  targetOrSystem: "FAAH (Rattus norvegicus)"
  unitAbbreviation: "%"
  inhibition at 0.1 µM: 99
- compound: "CC(c1ccccc1)c1ncc2c(n1)n(C)c(=O)n2C(=O)N1CCCC1 (centres unmarked)"
  targetOrSystem: "FAAH (Rattus norvegicus)"
  unitAbbreviation: "%"
  inhibition at 0.1 µM: 89
- compound: "CN(C)C(=O)n1c(=O)n(C)c2cnc(COc3ccccc3C(F)(F)F)nc21"
  targetOrSystem: "FAAH (Rattus norvegicus)"
  unitAbbreviation: "%"
  inhibition at 0.1 µM: 84
- compound: "CCN(C)C(=O)n1c(=O)n(C)c2cnc(-c3cccc(C)c3)nc21"
  targetOrSystem: "FAAH (Rattus norvegicus)"
  unitAbbreviation: "%"
  inhibition at 0.1 µM: 71
- compound: "Cn1c(=O)n(C(=O)N2CCCC2)c2cnc(-c3cccc(F)c3F)nc21"
  targetOrSystem: "FAAH (Rattus norvegicus)"
  unitAbbreviation: "%"
  inhibition at 0.1 µM: 100
- compound: "CN1CCN(C(=O)n2c(=O)n(C)c3nc(-c4ccccc4)ncc32)CC1"
  targetOrSystem: "FAAH (Rattus norvegicus)"
  unitAbbreviation: "%"
  inhibition at 0.1 µM: 38
